Reference source: patent US20100298141A1

- Test system: Surinam grass
- Assay protocol: Test F preemergence test
- Format: in vivo, Brachiaria decumbens
- Measurement context: 62 g ai/ha, Preemergence; scale 0 to 100
Surinam Grass plant response rating by entry:
Outcome measure: Surinam Grass plant response rating

Cc1cc[n+]([O-])c([S+]([O-])Cc2c(C(F)(F)F)nn(C)c2OC(F)F)c1 (stereo not shown) ... 90
Cc1cc[n+]([O-])c(S(=O)(=O)Cc2c(C(F)(F)F)nn(C)c2Cl)c1 ... 75
CC(c1c(C(F)(F)F)nn(C)c1OC(F)F)S(=O)(=O)c1cccc[n+]1[O-] (stereo not shown) ... 100
Cn1nc(C(F)(F)F)c(C[S+]([O-])c2cccc[n+]2[O-])c1OCC(F)(F)F (racemic) ... 100

----------
Reported values of Plant response rating, Wheat for individual entries
- Test system: wheat
- Assay protocol: Test A pre-/postemergence greenhouse test
- Format: in vivo, Triticum aestivum
- Measurement context: Preemergence, 500 g ai/ha; 0 to 100 scale where 0 is no effect and 100 is complete control
Outcome measure: Plant response rating, Wheat

Cn1nc(C(F)(F)F)c(CS(=O)(=O)c2ccc(Cl)c[n+]2[O-])c1Cl ... 20
CCn1nc(C(F)(F)F)c(C[S+]([O-])c2cccc[n+]2[O-])c1OCC(F)(F)F (racemic) ... 100
Cc1cc[n+]([O-])c(S(=O)(=O)C(Cl)c2c(C(F)(F)F)nn(C)c2Cl)c1 (racemic) ... 50
Cn1nc(C(F)(F)F)c(C[S+]([O-])c2cc(Cl)cc[n+]2[O-])c1Cl (racemic) ... 70
Cn1nc(C(F)(F)F)c(CS(=O)(=O)c2ccc(Cl)c[n+]2[O-])c1OCC(F)(F)F ... 50
Cn1nc(OC(F)F)c(CS(=O)(=O)c2cccc[n+]2[O-])c1C(F)(F)F ... 80
Cn1nc(C(F)(F)C(F)(F)F)c(C[S+]([O-])c2cccc[n+]2[O-])c1OCC(F)(F)F (centres unmarked) ... 100
Cn1nc(C(F)(F)F)c(C[S+]([O-])c2ccc(F)c[n+]2[O-])c1OCC(F)(F)F (centres unmarked) ... 100

----------
Here, each record is paired with measured Foxtail, Giant plant response rating data.
- Test system: giant foxtail
- Assay protocol: Test A pre-/postemergence greenhouse test
- Format: in vivo, Setaria faberi
- Measurement context: Postemergence, 500 g ai/ha; 0 to 100 scale, 0 is no effect, 100 is complete control
Outcome measure: Foxtail, Giant plant response rating

Cn1nc(C(F)(F)F)c(C[S+]([O-])c2ccc(Cl)c[n+]2[O-])c1Cl (racemic) [Compound 17] ... 90
Cn1nc(C(F)(F)F)c(C[S+]([O-])c2cccc[n+]2[O-])c1OC(F)F (centres unmarked) [Compound 3] ... 90
Cc1cc[n+]([O-])c(S(=O)(=O)C(C)c2c(C(F)(F)F)nn(C)c2OC(F)F)c1 (centres unmarked) [Compound 11] ... 80
CC(c1c(C(F)(F)F)nn(C)c1OC(F)F)S(=O)(=O)c1ccc(Br)c[n+]1[O-] (racemic) [Compound 23] ... 40
Cn1nc(C(F)(F)F)c(C[S+]([O-])c2ccc(Cl)c[n+]2[O-])c1OCC(F)F (centres unmarked) [Compound 85] ... 90
Cn1nc(C(F)(F)F)c(CS(=O)(=O)c2cc(Cl)cc[n+]2[O-])c1Cl [Compound 38] ... 0
Cn1nc(C(F)(F)F)c(C(Cl)S(=O)(=O)c2cccc[n+]2[O-])c1OC(F)F (centres unmarked) [Compound 51] ... 90
CC(Oc1c(CS(=O)(=O)c2cccc[n+]2[O-])c(C(F)(F)F)nn1C)C(F)(F)F (centres unmarked) [Compound 82] ... 90

----------
Recorded Pigweed plant response rating values for a group of compounds are listed next.
- Test system: redroot pigweed
- Assay protocol: Test A pre-/postemergence greenhouse test
- Assay type: in vivo, Amaranthus retroflexus
- Measurement context: Preemergence, 500 g ai/ha; 0 to 100 scale, 0 no effect, 100 complete control
Outcome measure: Pigweed plant response rating

CCc1cc[n+]([O-])c(S(=O)(=O)Cc2c(C(F)(F)F)nn(C)c2OC(F)F)c1 [Compound 102] ... 100
Cc1cc[n+]([O-])c(S(=O)(=O)Cc2c(C(F)(F)C(F)(F)F)nn(C)c2OCC(F)(F)F)c1 [Compound 99] ... 100
CC(C)c1cc[n+]([O-])c([S+]([O-])Cc2c(C(F)(F)F)nn(C)c2OC(F)F)c1 (stereo not drawn) [Compound 109] ... 100
Cn1nc(C(F)(F)F)c(CS(=O)(=O)c2ccc(F)c[n+]2[O-])c1OC(F)F [Compound 107] ... 60
CC(C)c1cc[n+]([O-])c(S(=O)(=O)Cc2c(C(F)(F)F)nn(C)c2OC(F)F)c1 [Compound 110] ... 100
CC(C)c1cc[n+]([O-])c(S(=O)(=O)Cc2c(C(F)(F)F)nn(C)c2OCC(F)(F)F)c1 [Compound 111] ... 100

----------
- System: crabgrass
- Assay protocol: Test A pre-/postemergence greenhouse test
- Assay type: in vivo, Digitaria sanguinalis
- Measurement context: Postemergence, 125 g ai/ha; 0 to 100 scale where 0 is no effect and 100 is complete control
// returns not met unless Plant response rating, Crabgrass, Large is strictly below 60, in which case met

Cc1cc([S+]([O-])Cc2c(C(F)(F)F)nn(C)c2OCC(F)(F)F)[n+]([O-])cc1Cl (stereo not shown) ... met
CCn1nc(C(F)(F)F)c(C[S+]([O-])c2cc(C)cc[n+]2[O-])c1OCC(F)(F)F (racemic) ... met
Cn1nc(C(F)(F)F)c(CS(=O)(=O)c2ccc(F)c[n+]2[O-])c1Cl ... met
Cc1cc[n+]([O-])c([S+]([O-])Cc2c(C(F)(F)F)nn(C)c2OCC(F)F)c1 (stereo not shown) ... met
Cn1nc(C(F)(F)F)c(CS(=O)(=O)c2ccc(F)c[n+]2[O-])c1OC(F)F ... not met
C#CCOc1c(C[S+]([O-])c2cccc[n+]2[O-])c(C(F)(F)F)nn1C (stereo not shown) ... met
C#CCOc1c(CS(=O)(=O)c2cccc[n+]2[O-])c(C(F)(F)F)nn1C ... not met
Cn1nc(C(F)(F)F)c(C[S+]([O-])c2ccc(Cl)c[n+]2[O-])c1OCC(F)F (stereo not shown) ... not met
CCCc1cc[n+]([O-])c([S+]([O-])Cc2c(C(F)(F)F)nn(C)c2OCC(F)(F)F)c1 (stereo not shown) ... met
Cn1nc(C(F)(F)F)c(CS(=O)(=O)c2cc(C3CC3)cc[n+]2[O-])c1OCC(F)(F)F ... met
Cn1nc(C(F)(F)F)c(C[S+]([O-])c2ccc(F)c[n+]2[O-])c1Cl (stereo not shown) ... met
Cn1nc(C(F)(F)C(F)(F)F)c(C[S+]([O-])c2cccc[n+]2[O-])c1OCC(F)(F)F (stereo not shown) ... not met

----------
- Tested on: corn
- Assay protocol: Test C pre-/postemergence test
- Assay type: in vivo, Zea mays
- Measurement context: Preemergence, 31 g ai/ha; scale 0 to 100 (0 no effect, 100 complete control)
- From the text: Seeds of plant species selected from blackgrass (Alopecurus myosuroides), downy brome (Bromus tectorum), green foxtail (Setaria viridis), Italian ryegrass (Lolium multiflorum), wheat (Triticum aestivum), wild oat (Avena fatua), catchweed bedstraw (Galium aparine), Russian thistle (Salsola kali), […] […]
Measured Plant response rating, Corn by item
Outcome measure: Plant response rating, Corn

CCn1nc(C(F)(F)F)c(C[S+]([O-])c2cccc[n+]2[O-])c1OCC(F)(F)F (racemic) ... 70
CC(c1c(C(F)(F)F)nn(C)c1OC(F)F)S(=O)(=O)c1cc(C(C)(C)C)cc[n+]1[O-] (racemic) ... 0
Cc1cc[n+]([O-])c([S+]([O-])Cc2c(C(F)(F)F)nn(C)c2OCC(F)(F)F)c1 (racemic) ... 5
C#CCOc1c(C[S+]([O-])c2cccc[n+]2[O-])c(C(F)(F)F)nn1C (stereo not shown) ... 0
Cn1nc(C(F)(F)F)c(C[S+]([O-])c2cc(F)cc[n+]2[O-])c1Cl (racemic) ... 0
Cn1nc(C(F)(F)F)c(C[S+]([O-])c2ccc(Cl)c[n+]2[O-])c1OCC(F)(F)F (racemic) ... 80
Cc1cc[n+]([O-])c(S(=O)(=O)C(Cl)c2c(C(F)(F)F)nn(C)c2OCC(F)(F)F)c1 (racemic) ... 0

----------
- Tested on: corn
- Assay protocol: Test C pre-/postemergence test
- Assay type: in vivo, Zea mays
- Measurement context: 125 g ai/ha, preemergence; scale 0 (no effect) to 100 (complete control)
- Description: Seeds of plant species selected from blackgrass (Alopecurus myosuroides), downy brome (Bromus tectorum), green foxtail (Setaria viridis), Italian ryegrass (Lolium multiflorum), wheat (Triticum aestivum), wild oat (Avena fatua), catchweed bedstraw (Galium aparine), Russian thistle (Salsola kali), […] […]
Outcome measure: Corn plant response rating

CC(Oc1c(CS(=O)(=O)c2cccc[n+]2[O-])c(C(F)(F)F)nn1C)C(F)(F)F (centres unmarked) [Compound 82] ... 70
Cn1nc(C(F)(F)F)c(C[S+]([O-])c2ccc(F)c[n+]2[O-])c1Cl (centres unmarked) [Compound 54] ... 85
CCn1nc(C(F)(F)F)c(C[S+]([O-])c2cccc[n+]2[O-])c1OCC(F)(F)F (racemic) [Compound 65] ... 100
Cn1nc(C(F)(F)F)c(C[S+]([O-])c2cccc[n+]2[O-])c1OCC(F)F (centres unmarked) [Compound 75] ... 95
C#CCOc1c(C[S+]([O-])c2cccc[n+]2[O-])c(C(F)(F)F)nn1C (centres unmarked) [Compound 76] ... 100
